Cited source for all entries: paper PMC6045484

Here's a batch of compounds along with measured MIC for C. neoformans ATCC90113.
MEASURED_QUANTITY: MIC

INSERT INTO results (compound, result) VALUES
  ('CCCCOc1c(OC)cc(NC(C)CCCN)c2nc(C(C)(C)C)cc(C)c12 (stereo not shown) [compound 50]', '1.25 µg/mL'),
  ('CCCCCCCOc1c(OC)cc(NC(C)CCCNC(=O)C(N)CCCCN)c2nc(C(C)(C)C)ccc12 (stereo not shown) [compound 109]', '> 20 µg/mL'),
  ('CCCCCCCOc1c(OC)cc(NC(C)CCCNC(=O)C(N)CCCNC(=N)N)c2nc(C(C)(C)C)ccc12 (stereo not shown) [compound 111]', '> 20 µg/mL'),
  ('CCCCCCOc1c(OC)cc(NC(C)CCCNC(=O)C(N)CCSC)c2nc(C(C)(C)C)ccc12 (stereo not shown) [compound 102]', '> 20 µg/mL');

----------
- System: C. neoformans ATCC90113
- TEST: in vitro antifungal activity
- Format: cell-based, Cryptococcus neoformans
- COND: Cryptococcus neoformans, ATCC90113, read-out: C. neoformans MFC
Measured MFC values are reported for all entries that follow.
MEASURED_QUANTITY: MFC (µg/mL)

INSERT INTO measurements (molecule, target_under_test, measured_quantity, sign, recorded_number) VALUES
  ('CCCCCOc1c(OC)cc(NC(C)CCCNC(=O)C(N)Cc2ccccc2)c2nc(C(C)(C)C)ccc12 (stereo not shown)', 'C. neoformans ATCC90113', 'MFC', '=', 2.5),
  ('CCCCCCCOc1c(OC)cc(NC(C)CCCNC(=O)C(N)C(C)CC)c2nc(C(C)(C)C)ccc12 (stereo not shown)', 'C. neoformans ATCC90113', 'MFC', '=', 2.5),
  ('CCCCCCOc1c(OC)cc(NC(C)CCCNC(=O)C(N)CCCNC(=N)N)c2nc(C(C)(C)C)ccc12 (stereo not shown)', 'C. neoformans ATCC90113', 'MFC', '>', 20),
  ('CCCCCOc1c(OC)cc(NC(C)CCCNC(=O)C(N)C(C)CC)c2nc(C(C)(C)C)ccc12 (stereo not shown)', 'C. neoformans ATCC90113', 'MFC', '=', 10),
  ('CCCCOc1c(OC)cc(NC(C)CCCNC(=O)C(N)CCCCN)c2nc(C(C)(C)C)ccc12 (stereo not shown)', 'C. neoformans ATCC90113', 'MFC', '>', 20),
  ('CCCCCCCCOc1c(OC)cc(NC(C)CCCNC(=O)C(N)Cc2cc3ccccc3[nH]2)c2nc(C(C)(C)C)ccc12 (stereo not shown)', 'C. neoformans ATCC90113', 'MFC', '>', 20),
  ('CCCCCOc1c(OC)cc(NC(C)CCCNC(=O)C(N)CC(C)C)c2nc(C(C)(C)C)ccc12 (stereo not shown)', 'C. neoformans ATCC90113', 'MFC', '=', 2.5);

----------
- System: C. albicans ATCC90028
- TEST: in vitro antifungal activity
- Format: cell-based, Candida albicans
- COND: Candida albicans, ATCC90028, read-out: C. albicans IC50
Measured IC50 values are reported for all entries that follow.
MEASURED_QUANTITY: IC50

INSERT INTO measurements (molecule, measured_quantity, result) VALUES
  ('CCCCCOc1c(OC)cc(NC(C)CCCN)c2nc(C(C)(C)C)cc(C)c12 (stereo not shown) [compound 51]', 'IC50', '> 20 µg/mL'),
  ('CCCCCCOc1c(OC)cc(NC(C)CCCNC(=O)C(N)Cc2cnc[nH]2)c2nc(C(C)(C)C)ccc12 (stereo not shown) [compound 105]', 'IC50', '19.4 µg/mL'),
  ('CCCCCOc1c(OC)cc(NC(C)CCCNC(=O)C(N)Cc2cc3ccccc3[nH]2)c2nc(C(C)(C)C)ccc12 (stereo not shown) [compound 98]', 'IC50', '18.8 µg/mL'),
  ('CCCCCOc1c(OC)cc(NC(C)CCCN)c2nc(C(C)(C)C)ccc12 (stereo not shown) [compound 46]', 'IC50', '> 20 µg/mL'),
  ('CCCCCOc1c(OC)cc(NC(C)CCCNC(=O)C(N)CC(C)C)c2nc(C(C)(C)C)ccc12 (stereo not shown) [compound 95]', 'IC50', '18.4 µg/mL'),
  ('CCCCCCOc1c(OC)cc(NC(C)CCCNC(=O)C(N)CCCNC(=N)N)c2nc(C(C)(C)C)ccc12 (stereo not shown) [compound 101]', 'IC50', '> 20 µg/mL'),
  ('CCCCCCCCOc1c(OC)cc(NC(C)CCCNC(=O)C(N)Cc2cc3ccccc3[nH]2)c2nc(C(C)(C)C)ccc12 (stereo not shown) [compound 122]', 'IC50', '> 20 µg/mL');

----------
- System: C. albicans ATCC90028
- TEST: in vitro antifungal activity
- Type: cell-based, Candida albicans
- COND: Candida albicans, ATCC90028, read-out: C. albicans MFC
MEASURED_QUANTITY: MFC

INSERT INTO measurements (compound, target_under_test, measured_quantity, result) VALUES
  ('CCCCCCOc1c(OC)cc(NC(C)CCCN)c2nc(C(C)(C)C)ccc12 (centres unmarked) [compound 47]', 'C. albicans ATCC90028', 'MFC', '20 µg/mL'),
  ('CCCCCCOc1c(OC)cc(NC(C)CCCNC(=O)C(N)CCSC)c2nc(C(C)(C)C)ccc12 (centres unmarked) [compound 102]', 'C. albicans ATCC90028', 'MFC', '> 20 µg/mL'),
  ('CCCCCCCOc1c(OC)cc(NC(C)CCCN)c2nc(C(C)(C)C)cc(C)c12 (centres unmarked) [compound 53]', 'C. albicans ATCC90028', 'MFC', '10 µg/mL'),
  ('CCCCCCCCOc1c(OC)cc(NC(C)CCCNC(=O)C(N)C(C)CC)c2nc(C(C)(C)C)ccc12 (centres unmarked) [compound 119]', 'C. albicans ATCC90028', 'MFC', '> 20 µg/mL'),
  ('CCCCCCOc1c(OC)cc(NC(C)CCCNC(=O)C(N)CCCCN)c2nc(C(C)(C)C)ccc12 (centres unmarked) [compound 99]', 'C. albicans ATCC90028', 'MFC', '> 20 µg/mL'),
  ('CCCCOc1c(OC)cc(NC(C)CCCNC(=O)C(N)CCCN)c2nc(C(C)(C)C)ccc12 (centres unmarked) [compound 91]', 'C. albicans ATCC90028', 'MFC', '> 20 µg/mL'),
  ('CCCCCCCCOc1c(OC)cc(NC(C)CCCN)c2nc(C(C)(C)C)cc(C)c12 (centres unmarked) [compound 54]', 'C. albicans ATCC90028', 'MFC', '> 20 µg/mL'),
  ('CCCCCCCCOc1c(OC)cc(NC(C)CCCNC(=O)C(N)Cc2cc3ccccc3[nH]2)c2nc(C(C)(C)C)ccc12 (centres unmarked) [compound 122]', 'C. albicans ATCC90028', 'MFC', '> 20 µg/mL');

----------
- System: C. albicans ATCC90028
- TEST: in vitro antifungal activity
- Format: cell-based, Candida albicans
- COND: Candida albicans, ATCC90028, read-out: C. albicans IC50
MEASURED_QUANTITY: IC50

INSERT INTO assay_data (compound, result) VALUES
  ('CCCCCCCOc1c(OC)cc(NC(C)CCCN)c2nc(C(C)(C)C)ccc12 (centres unmarked)', '4.93 µg/mL'),
  ('CCCCCCCOc1c(OC)cc(NC(C)CCCNC(=O)C(N)CCSC)c2nc(C(C)(C)C)ccc12 (centres unmarked)', '> 20 µg/mL'),
  ('CCCCCCOc1c(OC)cc(NC(C)CCCNC(=O)C(N)Cc2ccccc2)c2nc(C(C)(C)C)ccc12 (centres unmarked)', '> 20 µg/mL'),
  ('CCCCCCCOc1c(OC)cc(NC(C)CCCNC(=O)C(N)CCCCN)c2nc(C(C)(C)C)ccc12 (centres unmarked)', '> 20 µg/mL'),
  ('CCCCCCCCOc1c(OC)cc(NC(C)CCCNC(=O)C(N)CCSC)c2nc(C(C)(C)C)ccc12 (centres unmarked)', '> 20 µg/mL'),
  ('CCCCCCCCOc1c(OC)cc(NC(C)CCCNC(=O)C(N)Cc2ccccc2)c2nc(C(C)(C)C)ccc12 (centres unmarked)', '> 20 µg/mL'),
  ('CCCCCCOc1c(OC)cc(NC(C)CCCNC(=O)C(N)CCCCN)c2nc(C(C)(C)C)ccc12 (centres unmarked)', '> 20 µg/mL'),
  ('CCCCOc1c(OC)cc(NC(C)CCCN)c2nc(C(C)(C)C)cc(C)c12 (centres unmarked)', '15 µg/mL');

----------
- Tested on: C. glabrata ATCC90030
- TEST: in vitro antifungal activity
- Format: cell-based, Candida glabrata
Measured C. glabrata IC50 values are reported for all entries that follow.
MEASURED_QUANTITY: C. glabrata IC50 (mg/L)

INSERT INTO assay_data (compound, u, recorded_number) VALUES
  ('CCCCCCCCOc1c(OC)cc(NC(C)CCCNC(=O)C(N)CCCN)c2nc(C(C)(C)C)ccc12 (stereo not shown)', 'mg/L', 8.05),
  ('CCCCCCOc1c(OC)cc(NC(C)CCCNC(=O)C2CCCN2)c2nc(C(C)(C)C)ccc12 (stereo not shown)', 'mg/L', 8.91);
